- Tested on: MCF7
- method: Cytotoxicity against human MCF7 cells after 96 hrs by sulforhodamine B assay
- Format: functional, cell-based
- assay setup: MCF7, 96 h
pIC50: −log10 of the molar value.
Here the recorded pIC50 is given for each entry.

molecule	pIC50
C=C(C)[C@@H]1CC[C@]2([C@H](O)c3cnn(C)c3C(=O)OC)CC[C@]3(C)[C@H](CC[C@@H]4[C@@]5(C)CC[C@H](OC(C)=O)C(C)(C)[C@@H]5CC[C@]43C)[C@@H]12	4.91
C=C(C)[C@@H]1CC[C@]2([C@@H]3OC(=O)C=C3N3CCCC3)CC[C@]3(C)[C@H](CC[C@@H]4[C@@]5(C)CC[C@H](OC(C)=O)C(C)(C)[C@@H]5CC[C@]43C)[C@@H]12	5.43
C=C(C)[C@@H]1CC[C@]2([C@H](O)C3=C(C(=O)OC)C(C(=O)OCC)N=N3)CC[C@]3(C)[C@H](CC[C@@H]4[C@@]5(C)CC[C@H](OC(C)=O)C(C)(C)[C@@H]5CC[C@]43C)[C@@H]12 (some centres undefined)	5.10
C=C(C)[C@@H]1CC[C@]2([C@H](O)c3c(C(=O)OCC)n[nH]c3C(=O)OC)CC[C@]3(C)[C@H](CC[C@@H]4[C@@]5(C)CC[C@H](OC(C)=O)C(C)(C)[C@@H]5CC[C@]43C)[C@@H]12	4.95

---

Here the recorded pIC50 is given for each entry.
- Test system: SW-1736
- method: Cytotoxicity against human SW1736 cells after 96 hrs by sulforhodamine B assay
- Assay type: functional, cell-based
- assay setup: SW-1736, 96 h
pIC50: −log10 of the molar value.
property measured: pIC50

compound	property measured	measured result
C=C(C)[C@@H]1CC[C@]2([C@@H]3OC(=O)C=C3N3CCCC3)CC[C@]3(C)[C@H](CC[C@@H]4[C@@]5(C)CC[C@H](OC(C)=O)C(C)(C)[C@@H]5CC[C@]43C)[C@@H]12	pIC50	5.39
C=C(C)[C@@H]1CC[C@]2([C@@H]3OC(=O)C=C3N(C)C)CC[C@]3(C)[C@H](CC[C@@H]4[C@@]5(C)CC[C@H](OC(C)=O)C(C)(C)[C@@H]5CC[C@]43C)[C@@H]12	pIC50	5.54
C=C(C)[C@@H]1CC[C@]2([C@H](O)C3=C(C(=O)OC)C(C(=O)OCC)N=N3)CC[C@]3(C)[C@H](CC[C@@H]4[C@@]5(C)CC[C@H](OC(C)=O)C(C)(C)[C@@H]5CC[C@]43C)[C@@H]12 (some centres undefined)	pIC50	4.79
C=C(C)[C@@H]1CC[C@]2([C@H](O)c3nn[nH]c3C(=O)OC)CC[C@]3(C)[C@H](CC[C@@H]4[C@@]5(C)CC[C@H](OC(C)=O)C(C)(C)[C@@H]5CC[C@]43C)[C@@H]12	pIC50	4.93

---

- Test system: HT-29
- method: Cytotoxicity against human HT-29 cells after 96 hrs by sulforhodamine B assay
- Format: functional, cell-based
- assay setup: HT-29, 96 h
So basically, if IC50 comes in under 10 µM it's yes (1), and if it's 10 µM or more it's no (0).

compound	experimental target	qualitative label
C=C(C)[C@@H]1CC[C@]2([C@H](O)/C=C\CO)CC[C@]3(C)[C@H](CC[C@@H]4[C@@]5(C)CC[C@H](OC(C)=O)C(C)(C)[C@@H]5CC[C@]43C)[C@@H]12	HT-29	no (0)
C=C(C)[C@@H]1CC[C@]2([C@H](O)c3c(C(=O)OCC)n[nH]c3C(=O)OC)CC[C@]3(C)[C@H](CC[C@@H]4[C@@]5(C)CC[C@H](OC(C)=O)C(C)(C)[C@@H]5CC[C@]43C)[C@@H]12	HT-29	no (0)
C=C(C)[C@@H]1CC[C@]2([C@H](O)c3nn[nH]c3C(=O)OC)CC[C@]3(C)[C@H](CC[C@@H]4[C@@]5(C)CC[C@H](OC(C)=O)C(C)(C)[C@@H]5CC[C@]43C)[C@@H]12	HT-29	no (0)
C=C(C)[C@@H]1CC[C@]2([C@H](O)C#CCO)CC[C@]3(C)[C@H](CC[C@@H]4[C@@]5(C)CC[C@H](OC(C)=O)C(C)(C)[C@@H]5CC[C@]43C)[C@@H]12	HT-29	no (0)
C=C(C)[C@@H]1CC[C@]2([C@@H]3OC(=O)C=C3N3CCCC3)CC[C@]3(C)[C@H](CC[C@@H]4[C@@]5(C)CC[C@H](OC(C)=O)C(C)(C)[C@@H]5CC[C@]43C)[C@@H]12	HT-29	yes (1)
C=C(C)[C@@H]1CC[C@]2([C@H](O)C3=C(C(=O)OC)C(C(=O)OCC)N=N3)CC[C@]3(C)[C@H](CC[C@@H]4[C@@]5(C)CC[C@H](OC(C)=O)C(C)(C)[C@@H]5CC[C@]43C)[C@@H]12 (stereo partly drawn)	HT-29	no (0)
C=C(C)[C@@H]1CC[C@]2([C@@H]3OC(=O)C=C3NC3CC3)CC[C@]3(C)[C@H](CC[C@@H]4[C@@]5(C)CC[C@H](OC(C)=O)C(C)(C)[C@@H]5CC[C@]43C)[C@@H]12	HT-29	yes (1)
C=C(C)[C@@H]1CC[C@]2([C@@H]3OC(=O)C=C3N(C)C)CC[C@]3(C)[C@H](CC[C@@H]4[C@@]5(C)CC[C@H](OC(C)=O)C(C)(C)[C@@H]5CC[C@]43C)[C@@H]12	HT-29	yes (1)

---

Here the recorded IC50 is given for each entry.
- Tested on: MCF7
- method: Cytotoxicity against human MCF7 cells after 96 hrs by sulforhodamine B assay
- Format: functional, cell-based
- assay setup: MCF7, 96 h

structure smiles	IC50 / µM
C=C(C)[C@@H]1CC[C@]2([C@@H]3OC(=O)C=C3NC3CC3)CC[C@]3(C)[C@H](CC[C@@H]4[C@@]5(C)CC[C@H](OC(C)=O)C(C)(C)[C@@H]5CC[C@]43C)[C@@H]12	4
C=C(C)[C@@H]1CC[C@]2([C@@H]3OC(=O)C=C3N(C)C)CC[C@]3(C)[C@H](CC[C@@H]4[C@@]5(C)CC[C@H](OC(C)=O)C(C)(C)[C@@H]5CC[C@]43C)[C@@H]12	6.9
C=C(C)[C@@H]1CC[C@]2([C@H](O)C#CCO)CC[C@]3(C)[C@H](CC[C@@H]4[C@@]5(C)CC[C@H](OC(C)=O)C(C)(C)[C@@H]5CC[C@]43C)[C@@H]12	9.9
C=C(C)[C@@H]1CC[C@]2([C@H](O)c3nn[nH]c3C(=O)OC)CC[C@]3(C)[C@H](CC[C@@H]4[C@@]5(C)CC[C@H](OC(C)=O)C(C)(C)[C@@H]5CC[C@]43C)[C@@H]12	14.8
C=C(C)[C@@H]1CC[C@]2([C@H](O)/C=C\CO)CC[C@]3(C)[C@H](CC[C@@H]4[C@@]5(C)CC[C@H](OC(C)=O)C(C)(C)[C@@H]5CC[C@]43C)[C@@H]12	19.4

---

Here the recorded pIC50 is given for each entry.
- System: 8505C
- method: Cytotoxicity against human 8505C cells after 96 hrs by sulforhodamine B assay
- Assay type: functional, cell-based
pIC50: −log10 of the molar value.

molecule	pIC50
C=C(C)[C@@H]1CC[C@]2([C@H](O)c3nn[nH]c3C(=O)OC)CC[C@]3(C)[C@H](CC[C@@H]4[C@@]5(C)CC[C@H](OC(C)=O)C(C)(C)[C@@H]5CC[C@]43C)[C@@H]12	4.81
C=C(C)[C@@H]1CC[C@]2([C@@H]3OC(=O)C=C3NC3CC3)CC[C@]3(C)[C@H](CC[C@@H]4[C@@]5(C)CC[C@H](OC(C)=O)C(C)(C)[C@@H]5CC[C@]43C)[C@@H]12	5.22
C=C(C)[C@@H]1CC[C@]2([C@@H]3OC(=O)C=C3N(C)C)CC[C@]3(C)[C@H](CC[C@@H]4[C@@]5(C)CC[C@H](OC(C)=O)C(C)(C)[C@@H]5CC[C@]43C)[C@@H]12	5.51
C=C(C)[C@@H]1CC[C@]2([C@@H]3OC(=O)C=C3N3CCCC3)CC[C@]3(C)[C@H](CC[C@@H]4[C@@]5(C)CC[C@H](OC(C)=O)C(C)(C)[C@@H]5CC[C@]43C)[C@@H]12	5.28
C=C(C)[C@@H]1CC[C@]2([C@H](O)c3cnn(C)c3C(=O)OC)CC[C@]3(C)[C@H](CC[C@@H]4[C@@]5(C)CC[C@H](OC(C)=O)C(C)(C)[C@@H]5CC[C@]43C)[C@@H]12	4.97
C=C(C)[C@@H]1CC[C@]2([C@H](O)C3=C(C(=O)OC)C(C(=O)OCC)N=N3)CC[C@]3(C)[C@H](CC[C@@H]4[C@@]5(C)CC[C@H](OC(C)=O)C(C)(C)[C@@H]5CC[C@]43C)[C@@H]12 (stereo partly specified)	5.05

Measured values drawn from ChEMBL document CHEMBL1250553 for this set.
